test-details: in vitro
settings: human, WST assay viability, AVG %

- compound: "C=CC1(C)OC(=O)N(c2cc(Cl)cc(Cl)c2)C1=O (stereo not shown) [Vinclozolin]"
  viability at 1 µM, %: 93.6
